All figures here come from paper PMC6364417.

This section presents compounds with their documented cell viability, IGR37 XP, 10μΜ values.
Test system: IGR37-XP cells (Vemurafenib-resistant)
Assay: Kinase inhibitor library screening, PrestoBlue cell viability, 1 or 10 μM, 72 h
Conditions: IGR37 XP, 10μΜ, 72 h
Protocol: After 72 h of treatment, cell viability was assessed using the PrestoBlue Cell Viability Reagent (ThermoFisher Scientific). Measurements were performed with the CLARIOstar Monochromator microplate reader (BMG Labtech). Kinase inhibitor library screening. […] Drugs were added at 2 different concentrations, 1 and 10 μM, for 72 h and cell viability was assessed using the PrestoBlue Cell Viability assay. […] Each cell line was analyzed at least in duplicate. […]

# compound, assayed_system, cell viability, IGR37 XP, 10μΜ
data = [
    ("Cc1cnc(Nc2ccc(N3CCN(C)CC3)cc2)nc1Nc1cccc(S(=O)(=O)NC(C)(C)C)c1 [TG101209]", "IGR37-XP cells (Vemurafenib-resistant)", "1.6%"),
    ("Cc1c(NC(=O)OC[C@@H]2COCCN2)cn2ncnc(Nc3ccc4c(cnn4Cc4cccc(F)c4)c3)c12 [BMS-599626 (AC480)]", "IGR37-XP cells (Vemurafenib-resistant)", "48.2%"),
]

-- ask For the compound shown here, CCO.N#CC(=C(/N)Sc1ccccc1N)/C(C#N)=C(\N)Sc1ccccc1N [U0126-EtOH] , give the reported cell viability, IGR37 XP, 10μΜ.
-- reply 45.1%

-- ask Record request: cell viability, IGR37 XP, 10μΜ value, item CCN1CCN(Cc2ccc(-c3cc4c(N[C@H](C)c5ccccc5)ncnc4[nH]3)cc2)CC1 [AEE788 (NVP-AEE788)]
-- reply 25.4%

-- ask Return reported cell viability, IGR37 XP, 10μΜ; argument: C[C@@H]1CCN(C(=O)CC#N)C[C@@H]1N(C)c1ncnc2[nH]ccc12.O=C(O)CC(O)(CC(=O)O)C(=O)O [Tofacitinib citrate (CP-690550 citrate)]
-- reply 83.2%

-- ask What value of cell viability, IGR37 XP, 10μΜ has been recorded for this entry: CC(O)C(=O)O.CC(O)C(=O)O.CN1CCN(c2ccc3nc(-c4c(N)c5c(F)cccc5[nH]c4=O)[nH]c3c2)CC1
-- reply 33%

-- ask Which cell viability, IGR37 XP, 10μΜ value belongs to C=CC(=O)Nc1cccc(Oc2nc(Nc3ccc(N4CCN(C)CC4)cc3)ncc2Cl)c1 [WZ3146] ?
-- reply 7%

====

System: A375-XP cells (Vemurafenib-resistant)
Assay: Kinase inhibitor library screening, PrestoBlue cell viability, 1 or 10 μM, 72 h
Settings: A375 XP, 1μΜ, 72 h; in %
Method: After 72 h of treatment, cell viability was assessed using the PrestoBlue Cell Viability Reagent (ThermoFisher Scientific). Measurements were performed with the CLARIOstar Monochromator microplate reader (BMG Labtech). Kinase inhibitor library screening. […] Drugs were added at 2 different concentrations, 1 and 10 μM, for 72 h and cell viability was assessed using the PrestoBlue Cell Viability assay. […] Each cell line was analyzed at least in duplicate. […]
value_type: cell viability, A375 XP, 1μΜ
Reply with the value as a number alone.

Completed entries (count: 4):
# compound, cell viability, A375 XP, 1μΜ
records = [
    ("C[C@@H]1CCN(C(=O)CC#N)C[C@@H]1N(C)c1ncnc2[nH]ccc12.O=C(O)CC(O)(CC(=O)O)C(=O)O [Tofacitinib citrate (CP-690550 citrate)]", 103.3),
    ("COc1cc2ncnc(Nc3ccc(O)c(Br)c3)c2cc1OC", 105.6),
    ("Cc1cnc(Nc2ccc(N3CCN(C)CC3)cc2)nc1Nc1cccc(S(=O)(=O)NC(C)(C)C)c1", 93.3),
    ("CCO.N#CC(=C(/N)Sc1ccccc1N)/C(C#N)=C(\\N)Sc1ccccc1N", 94.5),
]

-- ask # lookup: cell viability, A375 XP, 1μΜ of CC(C)(C)c1cc(C=C(C#N)C#N)cc(Br)c1O
-- reply 106.8

-- ask Returns the measured cell viability, A375 XP, 1μΜ for the input compound. Input: CCN1CCN(Cc2ccc(-c3cc4c(N[C@H](C)c5ccccc5)ncnc4[nH]3)cc2)CC1
-- reply 105.5

-- ask Quick one: cell viability, A375 XP, 1μΜ for CN1CCN(c2cccc(Nc3nc4c(-c5ccc(S(C)(=O)=O)cc5)cccn4n3)c2)CC1 ?
-- reply 100.1
